Biological target: RAC-gamma serine/threonine-protein kinase (Homo sapiens, UniProt Q9Y243)
Sequence (Q9Y243 whole entry): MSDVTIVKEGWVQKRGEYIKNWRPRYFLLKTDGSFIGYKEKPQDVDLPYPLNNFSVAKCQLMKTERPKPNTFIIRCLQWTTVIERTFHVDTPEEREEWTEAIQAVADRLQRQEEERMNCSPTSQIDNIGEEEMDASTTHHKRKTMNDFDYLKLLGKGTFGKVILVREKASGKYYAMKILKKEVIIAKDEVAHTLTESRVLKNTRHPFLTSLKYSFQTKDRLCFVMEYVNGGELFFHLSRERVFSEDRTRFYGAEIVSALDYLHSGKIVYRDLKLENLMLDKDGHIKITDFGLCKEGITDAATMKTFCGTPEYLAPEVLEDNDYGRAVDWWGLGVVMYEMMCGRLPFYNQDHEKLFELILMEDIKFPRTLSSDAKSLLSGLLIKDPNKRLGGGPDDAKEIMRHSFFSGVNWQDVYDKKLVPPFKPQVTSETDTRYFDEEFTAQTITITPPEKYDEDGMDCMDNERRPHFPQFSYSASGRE
Assay: Inhibition of Akt3 by cell-based IPKA assay
quantity: pIC50
Give bare numbers, as −log10 of the molar value.

Prompt line: Recorded pIC50 of CCN(CC)CCNC(=O)c1ccc2nc(-c3ccc(CN4CCC(n5c(=O)[nH]c6ccccc65)CC4)cc3)c(-c3ccccc3)nc2c1 , please.
Response line: 5.10

* * *

Hi there, I'd appreciate the recorded pIC50 for every entry that follows.
Biological target: RAC-alpha serine/threonine-protein kinase (Homo sapiens, UniProt P31749)
Sequence (P31749 whole entry): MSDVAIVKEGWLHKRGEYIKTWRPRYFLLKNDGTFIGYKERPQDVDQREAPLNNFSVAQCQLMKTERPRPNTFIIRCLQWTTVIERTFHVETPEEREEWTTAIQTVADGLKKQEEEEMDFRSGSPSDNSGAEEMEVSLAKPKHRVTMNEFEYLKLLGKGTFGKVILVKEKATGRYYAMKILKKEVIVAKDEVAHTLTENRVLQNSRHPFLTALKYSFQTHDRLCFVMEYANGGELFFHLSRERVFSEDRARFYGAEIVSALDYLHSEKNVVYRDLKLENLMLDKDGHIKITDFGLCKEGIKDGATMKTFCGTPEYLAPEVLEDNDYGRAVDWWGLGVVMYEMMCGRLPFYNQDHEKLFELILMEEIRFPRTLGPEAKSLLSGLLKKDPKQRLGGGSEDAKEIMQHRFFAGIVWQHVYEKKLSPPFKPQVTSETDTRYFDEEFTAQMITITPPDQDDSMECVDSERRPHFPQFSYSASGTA
Assay: Inhibition of Akt1 by cell-based IPKA assay
Numbers only, as −log10 of the molar value.

smilesText: CCN(CC)CCNC(=O)c1ccc2nc(-c3ccccc3)c(-c3ccc(CN4CCC(n5c(=O)[nH]c6ccccc65)CC4)cc3)nc2c1
testedTarget: RAC-alpha serine/threonine-protein kinase (Homo sapiens, UniProt P31749)
reportedResult: 6.60

Please look at the following compound next.
Prompt line: Query: pIC50; subject: CCN(CC)CCNC(=O)c1ccc2nc(-c3ccc(CN4CCC(n5c(=O)[nH]c6ccccc65)CC4)cc3)c(-c3ccccc3)nc2c1
Response line: 6.43

* * *

Target: RAC-alpha serine/threonine-protein kinase (Homo sapiens, UniProt P31749)
Assay: Inhibition of Akt1
Task for the reader: assign each of the following compounds its reported pIC50.
Answers are plain numbers, as −log10 of the molar value.

smilesText: CCN(CC)CCNC(=O)c1ccc2nc(-c3ccccc3)c(-c3ccc(CN4CCC(n5c(=O)[nH]c6ccccc65)CC4)cc3)nc2c1
quantity: pIC50
reportedResult: 6.86

Kindly consider the entry below.
Prompt line: Quick one: pIC50 for CCN(CC)CCNC(=O)c1ccc2nc(-c3ccc(CN4CCC(n5c(=O)[nH]c6ccccc65)CC4)cc3)c(-c3ccccc3)nc2c1 ?
Response line: 6.34

* * *

Experiment: Inhibition of PKC
quantity: IC50

smilesText: CCN(CC)CCNC(=O)c1ccc2nc(-c3ccc(CN4CCC(n5c(=O)[nH]c6ccccc65)CC4)cc3)c(-c3ccccc3)nc2c1
reportedResult: > 50 µM

# input for lookup
Prompt line: Given CCN(CC)CCNC(=O)c1ccc2nc(-c3ccccc3)c(-c3ccc(CN4CCC(n5c(=O)[nH]c6ccccc65)CC4)cc3)nc2c1 , state its recorded IC50.
Response line: > 50 µM
